Each recorded value in this set is attributed to patent US12565489B2.

# experimental details: Measurement of Log P values by HPLC on reversed phase columns (EEC directive 79/831 Annex V.A8)
# Format: physicochemical
# experimental conditions: LogP
Below is a list of entries, each paired with its recorded chromatographic logP value.
readout name: chromatographic logP

Cc1ccc(CC2CON=C(c3nc(C)ncc3Br)N2)c(C)c1 (racemic)	3.05
Cc1ncc(Oc2cccc(C3CC3)c2F)c(C(=O)O)n1	2.2
Cc1ccc(CC(CCl)NC(=O)c2nc(C)ncc2Br)c(C)c1 (racemic)	3.66
Cc1ccc(C[C@@H]2CON=C(c3nc(C)ncc3Oc3cccc(Cl)c3F)N2)c(Cl)c1 (racemic)	4.19
Cc1ccc(CC(CCl)NC(=NO)c2nc(C)ncc2Br)c(C)c1 (racemic)	3.26
Cc1ccc(C[C@H](CCl)NC(=O)c2nc(C)ncc2Oc2cccc(Cl)c2)c(Cl)c1 (racemic)	4.61
Cc1ccc(CC(CON2C(=O)c3ccccc3C2=O)NC(=O)c2nc(C3CC3)ncc2Oc2cccc(C(F)(F)F)c2)c(C)c1 (racemic)	5.4
Cc1ncc(Oc2cccc(Cl)c2)c(C(=O)O)n1	2
COc1ccc(C[C@@H]2CON=C(c3nc(C)ncc3Oc3cccc(C(F)(F)F)c3)N2)c(Cl)c1 (racemic)	4.08
Cc1ccc(C[C@@H]2CON=C(c3nc(C)ncc3Oc3cccc(Br)c3)N2)c(C)c1 (racemic)	4.44
Cc1ncc(Oc2cccc(C(F)(F)F)c2)c(C(=NO)N[C@@H](CCl)Cc2csc(C(F)(F)F)c2)n1 (racemic)	4.12
CSc1ncc(Br)c(C(=O)N[C@@H](CON)Cc2ccc(C)cc2C)n1 (racemic)	2.49
Cc1ccc(CC2CON=C(c3nc(C4CC4)ncc3Oc3cccc(C(F)(F)F)c3)N2)c(C)c1 (racemic)	5.16
Cc1ncc(Oc2cccc(C(F)(F)F)c2)c(C(=NO)N[C@@H](CCl)Cc2ccc(C(F)F)cc2Cl)n1 (racemic)	4.02
Cc1ncc(Oc2cccc(Cl)c2)c(C(N)=NO[C@H](F)C(=O)c2ccc(Cl)cc2)n1 (racemic)	3.4
